B1: mRNA-splicing (parent)
chain: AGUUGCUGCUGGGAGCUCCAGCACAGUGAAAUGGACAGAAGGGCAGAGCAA

Variants of: B1
Experiment: exon inclusion enrichment index; higher = more inclusion; WT1 exon 5 minigene, HEK293

{"VARIANT DESCRIPTION": "G5A C6A U7C G8U C9A", "exon inclusion enrichment index": 0.165}
{"VARIANT DESCRIPTION": "G5A C6A G8U C9U", "exon inclusion enrichment index": 0.0445}
{"VARIANT DESCRIPTION": "G2U U3G G5A U7C G8A U10C", "exon inclusion enrichment index": 4.12}
{"VARIANT DESCRIPTION": "G21C C22A", "exon inclusion enrichment index": 2.18}
{"VARIANT DESCRIPTION": "G5A U7C G8A U10C G26C U27G", "exon inclusion enrichment index": 3.53}
{"VARIANT DESCRIPTION": "C6A U7C C9A U10C A25U", "exon inclusion enrichment index": 3.47}
{"VARIANT DESCRIPTION": "C24U A25G", "exon inclusion enrichment index": 0.487}
{"VARIANT DESCRIPTION": "G5C C6A U7C G8A U10A G13A A14C", "exon inclusion enrichment index": 0.899}
{"VARIANT DESCRIPTION": "G5C C6G U7C U10C G13U", "exon inclusion enrichment index": 0.534}
{"VARIANT DESCRIPTION": "C6A U7A C9A U10A U32A G33C", "exon inclusion enrichment index": 0.991}
{"VARIANT DESCRIPTION": "G5A C6U U7A G8U C9A G28C A29C", "exon inclusion enrichment index": 0.0748}
